tested on: Erysiphe graminis f sp. tritici; experiment: Test J: wheat powdery mildew, preventive spray on wheat seedlings, visual disease rating; details: wheat powdery mildew, sprayed the day before inoculation; 100 = 100% disease control, 0 = no disease control relative to controls
Answer each item with its documented Test J disease control rating.
Only the number, expressed in %, is required.

Entry COc1ccc(-c2c(C)nn(C)c2Oc2ccc(C#N)cc2Cl)c(Cl)c1 , system Erysiphe graminis f sp. tritici: what Test J disease control rating was measured?
91

For Cc1nn(C)c(Oc2ccc(C#N)cc2Cl)c1-c1ccc(Cl)cc1Cl then?
96

Lookup Cc1nn(C)c(Nc2c(F)cccc2F)c1-c1ccc(Cl)cc1Cl
99

Could you do the same for Cc1nn(C)c(Nc2ccc(F)cc2Cl)c1-c1ccc(C#N)cc1Cl , please?
99

Would you kindly repeat that for COc1ccc(Nc2c(-c3ccc(F)cc3Cl)c(C)nn2C)c(Cl)c1 ?
100

Same question, Cc1nn(C)c(Nc2ccc(F)cc2Cl)c1-c1ccc(F)cc1Br this time
100

Request: COc1ccc(Nc2c(-c3ccc(F)cc3Br)c(C)nn2C)c(Cl)c1
99

Repeat for the following compound: Cc1nn(C)c(Oc2ccc(C#N)cc2F)c1-c1c(F)cccc1Cl
100

Now this one: Cc1nn(C)c(Oc2c(F)cc(C#N)cc2F)c1-c1cc(F)ccc1F
100

Thanks! And Cc1nn(C)c(Nc2c(F)cc(F)cc2Cl)c1-c1ccc(Cl)cc1Cl ?
99

Continue with Cc1nn(C)c(C(O)c2ccc(F)cc2)c1-c1ccc(F)cc1Cl (racemic)
0

Record: Cc1nn(C)c(Oc2c(F)cc(C#N)cc2F)c1-c1cccnc1Cl
0

Cc1nn(C)c(Nc2ccc(F)cc2Cl)c1-c1ccc(Cl)cc1Cl ?
100

Please give the result for Cc1nn(C)c(Nc2ccc(F)cc2Cl)c1-c1c(Cl)cccc1Cl too.
100

Now this one: Cc1nn(C)c(Nc2c(Cl)cc(F)cc2Cl)c1-c1ccc(Cl)cc1Cl
43

Here is the next compound: Cc1nn(C)c(N(c2c(F)cc(F)cc2F)S(C)(=O)=O)c1-c1ccc(F)cc1Cl
0

And for Cc1nn(C)c(Oc2c(F)cc(C#N)cc2F)c1-c1ccccc1C(F)(F)F ?
64

Can you check Cc1nn(C)c(Nc2ccc([N+](=O)[O-])cc2F)c1-c1ccc(F)cc1Cl next?
100

What do you get for COc1ccc(-c2c(C)nn(C)c2Oc2ccc(C#N)cc2F)c(Br)c1 ?
95

Also need Cc1nn(C)c(Nc2cc([N+](=O)[O-])ccc2F)c1-c1ccc(F)cc1Cl , thanks.
0

Another compound to check: Cc1nn(C)c(Nc2ccc(F)cc2F)c1-c1ccccc1Cl
100

Now consider Cc1nn(C)c(Nc2ccc(F)cc2)c1-c1c(Cl)cccc1Cl and answer again.
98

Another compound to check: Cc1nn(C)c(Nc2ncc(Cl)cc2Cl)c1-c1cccc(Cl)c1Cl
71

What do you get for COc1ccc(Nc2c(-c3ccc(Cl)cc3Cl)c(C)nn2C)cc1 ?
0

Param item: Cc1nn(C)c(Nc2c(Cl)cc(F)cc2Br)c1-c1ccc(F)cc1F
100

Query Cc1nn(C)c(Nc2ccc(F)cc2Br)c1-c1ccc(F)cc1Br next
100

Next compound: Cc1nn(C)c(Oc2c(F)cc(C#N)cc2F)c1-c1cc(C(F)(F)F)ccc1Cl
0

Also need Cc1nn(C)c(Nc2c(Cl)cc(Br)cc2Cl)c1-c1ccc(F)cc1Cl , thanks.
99

----------
test system: Botrytis cinerea; assay: Test B: tomato Botrytis, preventive spray on tomato seedlings, visual disease rating; settings: Botrytis cinerea, in Solanum lycopersicum, 120 h, read-out: Test B rating (% disease control)
experimental_readout: pest or weed control at 200 µg/mL (%)
Answer format: numeric, % implied, no suffix.

Reported pest or weed control at 200 µg/mL for Cc1nn(C)c(Nc2ccc(F)cc2Br)c1-c1ccc(F)cc1Cl : what is it?
100

Now consider Cc1nn(C)c(Nc2c(F)cc(F)cc2F)c1-c1ccc(F)cc1F and answer again.
100

Next entry: Cc1nn(C)c(Nc2c(F)cc(F)cc2F)c1-c1ccc(F)cc1Cl
99

Now the molecule COc1cc(F)c(-c2c(C)nn(C)c2Nc2ccc(F)cc2Cl)c(F)c1
100

----------
Kindly state Test H rating (% disease control) for each of the entries shown.
test system: Puccinia recondita f. sp. tritici; assay: Test H: wheat leaf rust, curative spray on inoculated wheat seedlings, visual disease rating; details: wheat leaf rust, curative; 100 = 100% disease control, 0 = no control relative to controls
Supply the numeric figure in %, leaving out any unit text.

Which Test H rating (% disease control) is listed for COc1cc(F)c(Nc2c(-c3c(F)cccc3C(F)(F)F)c(C)nn2C)c(F)c1 ?
0

Thanks! And COc1cc(F)c(-c2c(C)nn(C)c2Oc2cccc(C)c2)c(F)c1 ?
40

Field entry: Cc1nn(C)c(Nc2ccc(Cl)cc2Cl)c1-c1ccc(F)cc1F
0

Item: Cc1cc(Oc2c(-c3c(F)cc(F)cc3F)c(C)nn2C)ccc1Cl
0

Thanks! And Cc1nn(C)c(Nc2c(F)cc(F)cc2F)c1-c1cccc(F)c1F ?
0

Now try Cc1nn(C)c(Nc2c(F)cccc2F)c1-c1c(F)cccc1F .
0

Let us now turn to Cc1nn(C)c(Nc2cc(F)ccc2F)c1-c1c(F)cccc1F
0

And then Cc1nn(C)c(Nc2ncc(Cl)cc2Cl)c1-c1c(F)cccc1Cl , what is it?
0

Follow-up item: COc1cc(F)c(Nc2c(-c3c(F)cccc3Cl)c(C)nn2C)c(F)c1
94

Let us now turn to Cc1nn(C)c(Nc2cc(C#N)ccc2Cl)c1-c1ccc(F)cc1F
0

Again, but for Cc1nn(C)c(Oc2ccc(C#N)c(C#N)c2)c1-c1c(F)cc(F)cc1F
0

What about this compound? Cc1nn(C)c(Nc2ncc(F)cc2F)c1-c1ccc(F)cc1Cl
41

Another compound to check: COc1cccc(Nc2c(-c3ccc(F)cc3F)c(C)nn2C)c1Cl
0

Consider next the compound COc1cc(F)c(-c2c(C)nn(C)c2Oc2ccc(C)c(OC)c2)c(F)c1 in the same way.
0

Next compound up: Cc1nn(C)c(Nc2c(F)cc(F)cc2F)c1-c1c(F)cccc1F
9

Another compound to check: Cc1nn(C)c(Oc2cc(F)cc(F)c2F)c1-c1c(F)cc(F)cc1F
0

Also check COc1cccc(Nc2c(-c3c(F)cccc3F)c(C)nn2C)c1
0

Then this compound: Cc1ncc(Nc2c(-c3ccc(F)cc3Cl)c(C)nn2C)cn1
8

// same read-out, input: COc1cc(F)c(Nc2c(-c3c(F)cccc3F)c(C)nn2C)c(F)c1
0

Thanks! And Cc1nn(C)c(Oc2c(F)cc(C#N)cc2F)c1-c1cc(F)ccc1Cl ?
31

Same question, COc1ccc(Nc2c(-c3c(F)cccc3F)c(C)nn2C)c(F)c1 this time
0

Same for COc1cccc(Oc2c(-c3c(F)cc(F)cc3F)c(C)nn2C)c1
94

----------
system: Botrytis cinerea; assay: Test B: tomato Botrytis, preventive spray on tomato seedlings, visual disease rating; details: tomato Botrytis; 100 = 100% disease control, 0 = no control relative to controls
experimental_readout: Test B rating (% disease control)
Value and unit, in that order.

I would be grateful if you could share the reported Test B rating (% disease control) for Cc1nn(C)c(Nc2ncc(Cl)cc2Cl)c1-c1ccccc1C(F)(F)F [compound 251] .
99%

// repeat for Cc1nn(C)c(Nc2ncccc2Cl)c1-c1c(F)cc(F)cc1F [compound 241] and report
99%

How about this molecule: Cc1nn(C)c(Nc2cc(F)ccc2F)c1-c1ccc(F)cc1Cl [compound 173]
100%

What about this molecule? COc1cc(F)c(-c2c(C)nn(C)c2Oc2ccc(Br)c(OC)c2)c(F)c1 [compound 212]
0%

----------
system: Puccinia recondita f. sp. tritici; assay: Test H: wheat leaf rust, curative spray on inoculated wheat seedlings, visual disease rating; conditions: 144 h, read-out: Test H disease control rating
Returns one of YES or NO; YES when pest or weed control at 200 µg/mL is >= 90%.

Is pest or weed control at 200 µg/mL for Cc1nn(C)c(Nc2c(F)cc(Cl)cc2Cl)c1-c1ccc(F)cc1Cl [Compound 367] at or above 90%?
YES

Same thing, different compound: Cc1nn(C)c(Nc2c(F)cc(Cl)cc2F)c1-c1ccc(C#N)cc1Cl [Compound 336]
YES

// same read-out, input: Cc1nn(C)c(Nc2c(F)cc(Cl)cc2F)c1-c1ccc(F)cc1F [Compound 357]
NO

Similarly, Cc1nn(C)c(C(O)c2ccc(F)cc2F)c1-c1ccc(F)cc1Cl (stereo not drawn) [Compound 351] ?
YES

Same read-out for Cc1nn(C)c(Oc2ccc(C#N)cc2F)c1-c1c(F)cccc1F [Compound 361] ?
NO
